System: OVCAR-8
Test: NCI tumour cell line growth inhibition, 48 h
Active and inactive are the calls of the source. Cut-off read from the data, not from the text of the source: active = GI50 up to about 1.1 µM and inactive = higher.
The categories you may choose from are true = active, false = inactive

Request: Which outcome was assigned to COc1cccc(-c2cc(O)c3cc4c(cc3n2)OCO4)c1 in this test?
Result: true

Request: What do you get for CCc1n[nH]c(=O)n1/N=C/c1ccccc1Cl ?
Result: false

Request: Also need CC(C)(C)OC(=O)N[C@H]1CC2(C=C(Cl)C(=O)C(Cl)=C2)OC1=O , thanks.
Result: false

Request: Input Nc1ncnc2c1ncn2C1OC(CSC(F)(F)F)C(O)C1O (stereo unspecified)
Result: false

Request: Queued: CCOC(=O)NC1C2CC(=O)OC(O2)C1OC(C)=O (stereo unspecified)
Result: false

Request: Would you kindly repeat that for CC1=NNC(=O)C1C1C=C(c2c[nH]c3ccccc23)OC1=O (stereo unspecified) ?
Result: false

* * *

Please respond with reported GI50 for every item in the list.
Tested on: SF-295
Test: NCI tumour cell line growth inhibition, 48 h
Calls of active or inactive are those of the source. Cut-off read from the data, not from the text of the source: active = GI50 up to about 1.1 µM and inactive = higher.

Request: Entry N#CC(C(=N/O)/C(=N\O)C(C#N)c1ccccc1)c1ccccc1 (stereo not given) has what GI50?
Result: > 100 µM (inactive)

Request: Moving on to the next compound: CCc1n[nH]c(=O)n1/N=C/c1ccccc1Cl
Result: > 100 µM (inactive)

Request: Input O=C1N/N=C\Nc2ccc(cc2)S(=O)(=O)c2ccc(cc2)/N=C\NNC1=O
Result: > 100 µM (inactive)

Request: Could you do the same for NC(=O)CN1CC(C2=C(O)CN(CC(N)=O)C2=O)=CC1=O , please?
Result: > 100 µM (inactive)

Request: Moving on to NCCCN(CCCN(C(=O)Nc1ccccc1)c1ccccc1)C(=O)Nc1ccccc1
Result: 23.2 µM (inactive)

Request: And what about the compound N=C(N)NCCCC(NCc1c2ccccc2nc2ccccc12)C(=O)O (stereo not given) ?
Result: 48 µM (inactive)

Request: Here is the next compound: COc1ccc(C2=NNC(=O)OC2c2ccccc2)cc1 (stereo not given)
Result: 22.4 µM (inactive)

Request: Likewise for CC(C)CC1C(=O)NCCC(NC(=O)C(N)Cc2ccc(O)cc2)C(=O)NC(Cc2ccccc2)C(=O)NC(Cc2ccccc2)NC1=O (stereo not given) ?
Result: > 100 µM (inactive)

Request: Moving on to COC(=O)/C=C(/C(=O)OC)c1c(C)cc2c(C)cc(C)cc(C)c1-2
Result: 7.24 µM (inactive)

Request: Try this compound too: CCOC(=O)C(=Cc1cc(OC)ccc1OC)C(=O)OCC
Result: 12.4 µM (inactive)

* * *

Test system: SF-295
Assay: NCI tumour cell line growth inhibition, 48 h
Activity calls are given as the source filed them. No stated cut-off is given here; in the data, active = GI50 up to about 1.1 µM and inactive = higher.
readout: GI50

Request: Given O=C1CCCC/C1=C1\C(=O)Nc2cc(F)ccc21 , state its recorded GI50.
Result: > 100 µM (inactive)

Request: Next entry: Cc1cc([N+](=O)[O-])ccc1NC(=O)C(=O)C(C(=O)c1ccccc1-c1ccccc1)C1OC(=O)c2ccccc21 (configuration not stated)
Result: 19.2 µM (inactive)

Request: Again, but for O=C1NN=C2C=C(c3ccc(Cl)cc3)CC(c3cccc(Br)c3)C12 (configuration not stated)
Result: 91.4 µM (inactive)

Request: Next compound up: COc1ncnc2c1cnn2Cc1cn(COCC(O)CO)nn1 (configuration not stated)
Result: > 100 µM (inactive)

Request: Repeat with COc1cc([N+](=O)[O-])cc2c1NC(=O)C2(C)SC (configuration not stated)
Result: 63.7 µM (inactive)

Request: What do we get for O=S(=O)(O)Oc1cc2c(c(OS(=O)(=O)O)c1)C[C@H](OS(=O)(=O)O)[C@@H](c1ccc(OS(=O)(=O)O)c(OS(=O)(=O)O)c1)O2 ?
Result: > 100 µM (inactive)

Request: Then what about the compound C[C@]12CC[C@@H]3c4ccc(O)cc4CC[C@H]3[C@@H]1CC[C@@H]2OC(=O)CCc1ccccc1 ?
Result: 19.3 µM (inactive)

Request: Quick one: Nc1ncnc2c1ncn2C1C=CC(COS(N)(=O)=O)C1 (configuration not stated)
Result: 40.9 µM (inactive)

Request: Continue with Cc1ccc(-c2nc3cc(F)c(N4CCN(C)CC4)cc3[nH]2)cc1
Result: 16.6 µM (inactive)

Request: Would you mind doing COc1cc(C(=O)N(C(=S)OC23CC4CC(CC(C4)C2)C3)c2ccccc2)cc(OC)c1OC as well?
Result: 22.1 µM (inactive)

Request: For COC(=O)C(=O)C(C(=O)C(=O)Nc1ccc(F)cc1)c1nc2ccc([N+](=O)[O-])cc2nc1O (configuration not stated) then?
Result: > 100 µM (inactive)

Request: Cool, now O=C(Nc1nc(C23CC4CC(CC(C4)C2)C3)cs1)c1c(O)c2ccccc2[nH]c1=O
Result: > 100 µM (inactive)

Request: Next up: O=C(CCCn1cnc([N+](=O)[O-])n1)NCCn1ccnc1[N+](=O)[O-]
Result: > 100 µM (inactive)

Request: Next up: Nc1ccc(C(=O)NN2C(=O)C(Cl)C2c2cccc(O)c2)cc1 (configuration not stated)
Result: 18.3 µM (inactive)

Request: Please answer likewise for CC[C@@]1(C)CCC2c3ccc(O)cc3CC[C@H]2C1C (some centres not stated)
Result: 18.8 µM (inactive)

Request: Same again, this time with OCc1ccccc1O[C@H]1O[C@H](CO)[C@@H](O)[C@H](O)[C@H]1O
Result: > 100 µM (inactive)

Request: Entry to check: O=C(O)CCc1nc(-c2ccccc2)c(-c2ccccc2)o1
Result: > 100 µM (inactive)

Request: Then what about the compound OCCOCn1nncc1Cn1ncc2c(O)ncnc21 ?
Result: > 100 µM (inactive)

Request: Another compound to check: CCOc1ccc(NC(=S)N/C=C(/C(C)=O)C(=O)Nc2ccccc2C)cc1
Result: > 100 µM (inactive)

Request: Item: O=C1/C(=C/c2cccc([N+](=O)[O-])c2)N=C(c2ccccc2)N1c1nc2c(Cl)cc(Cl)cc2s1
Result: 33.6 µM (inactive)

Request: What do you have for CC(C)(C)[Si](C)(C)OCC1OC(n2cc(I)c(=O)[nH]c2=O)C(O[Si](C)(C)C(C)(C)C)C1O[Si](C)(C)C(C)(C)C (configuration not stated) ?
Result: 15.2 µM (inactive)

Request: Can you check NCCCN(CCCCN(CCCN)Cc1ccc2ccccc2c1)Cc1ccc2ccccc2c1 next?
Result: 2.12 µM (inactive)

Request: Please give the result for COC1CC(n2cnc3c(N)ncnc32)OC1CO (configuration not stated) too.
Result: > 100 µM (inactive)

Request: Also CC1(C)C(=NNC(=S)NN)C(C)(C)C1=NNC(=S)NN ?
Result: > 100 µM (inactive)

Request: Same for c1ccc(Cc2cccc3cc(-c4ccc(-c5ccccc5)cc4)[nH]c23)cc1
Result: > 100 µM (inactive)

Request: Next: CCCSS[C@H]1NC(=O)[C@H]1NC(=O)COc1ccccc1
Result: 41.9 µM (inactive)

Request: Next: CC1=NN(C(=O)CSc2nc3ccc(I)cc3c(=O)n2Cc2ccccc2)C(=O)C1
Result: 27.3 µM (inactive)

* * *

Test system: PC-3
Assay: NCI tumour cell line growth inhibition, 48 h
Active and inactive are the calls of the source. No stated cut-off is given here; in the data, active = GI50 up to about 1.1 µM and inactive = higher.
readout: GI50

Request: Report GI50 for Clc1cc(Cl)c2cc3cccc[n+]3cc2c1Cl please.
Result: 14 µM (inactive)

Request: Next compound up: Cc1ccc(C(C2C(=O)N(C)C(=O)N(C)C2=O)C(F)(F)C(=O)N(C)C)cc1 (centres undefined)
Result: > 100 µM (inactive)

Request: Again, but for N#C/C(=C\c1cn(Cc2ccccc2)c2ccccc12)c1nn(-c2ccccc2)c(N)c1C#N
Result: 8.22 µM (inactive)

Request: // repeat for CCCCCCCC(CC(=O)NC(CO)C(=O)NC(CO)CC(C)C)OC(=O)CC(CCCCCCC)OC(=O)CC(CCCCCCC)OC1OC(C)C(O)C(OC2OC(C)C(OC(C)=O)C(O)C2O)C1O (centres undefined) and report
Result: 4.04 µM (inactive)

Request: Try this compound next: NC(=O)N/N=C1\CCCCc2ccccc21
Result: > 10 µM (inactive)

Request: Let us now turn to COC(=O)c1ccccc1CC(Cc1ccccc1)C(=O)OC (centres undefined)
Result: 47.1 µM (inactive)

Request: Now the compound CC(C)(C)OC(=O)N/N=C(/N)Cc1ccc(Cl)cc1
Result: > 100 µM (inactive)

Request: And what about the compound COc1ccc(C2CC(c3cc4c(C)c(C(=O)c5ccccc5)oc4cc3O)=Nc3ccccc3S2)cc1OC (centres undefined) ?
Result: > 100 µM (inactive)

Request: Now this one: CSC12c3cc(C)n(-c4ccccc4)c3CC(C)(C)CN1C(=O)C2Oc1ccccc1 (centres undefined)
Result: 35.2 µM (inactive)
